- System: U2OS
- measurement protocol: Incucyte cell viability with U2OS; also: unitless GR value; below 1 slowed growth and below 0 cell loss
- Assay type: toxicity, cell-based
- protocol conditions: human, 6 h, 10 µM, compound concentration 10 uM, replicate number 2
measurement kind: Growth Rate
Numbers only.

Please report Growth Rate for every entry that follows.
1. c1cnc2cc3c(cc2n1)[C@@H]1CNC[C@H]3C1
2. OC(c1ccc(-c2ccc(CN3CCN(Cc4ccncc4)CC3)cc2)c(F)c1)(C(F)(F)F)C(F)(F)F
3. O=C(CNCc1cc2ccccc2[nH]1)N[C@H]1CC[C@@H](c2nc3ccccc3[nH]2)CC1
4. COc1cc2c(NC3CCN(C(C)C)CC3)nc(C3CCCCC3)nc2cc1OCCCN1CCCC1
5. CC(C)[C@H](CO)Nc1nc(Nc2ccc(C(=O)O)c(Cl)c2)c2ncn(C(C)C)c2n1
6. CCOC(=O)N1CCC(c2cc(O)n3nc(C)c(-c4ccc(F)cc4)c3n2)CC1

[0.65, 0.88, 1, 0.03, 0.56, 0.99]

Source: ChEMBL document CHEMBL5303304
